System: Pseu. aeru.
Protocol: In vitro antibacterial activity, microtitration dilution method (MIC)
Type: cell-based
Experimental Parameters: read-out: Minimal Inhibitory Concentration MIC
Property Label: MIC (µg/mL)

Study these solved cases before continuing.
Compound	MIC [µg/mL]
Nc1c(F)c(N2CCC(c3ccncc3)C2)c(F)c2c1c(=O)c(C(=O)O)cn2C1CC1 (stereo not shown) [Example 25]	3.1
NCc1cccc(C2CCN(c3nc4c(cc3F)c(=O)c(C(=O)O)cn4C3CC3)C2)c1 (stereo not shown) [Example 6]	0.8

I: NCc1ccc(C2CCN(c3c(F)c(N)c4c(=O)c(C(=O)O)cn(C5CC5)c4c3F)C2)cc1 (stereo not shown) [Example 11]
II: NCc1cccnc1C1CCN(c2c(F)c(N)c3c(=O)c(C(=O)O)cn(C4CC4)c3c2F)C1 (stereo not shown) [Example 29]
Please indicate which has the smaller reported MIC: I , or II . Identify your pick by its label.
I
(I: 0.8 µg/mL, II: 1.6 µg/mL)

###

So I've got MIC readings for Pseu. aeru., take a look.
Property Label: MIC (µg/mL)

Molecule	Unit Text	Quantitative Readout
O=C(O)c1cn(C2CC2)c2cc(N3CCC(c4cccnc4)C3)c(F)cc2c1=O (stereo not shown)	µg/mL	0.8
Nc1c(F)c(N2CCC(c3cccnc3)C2)c(F)c2c1c(=O)c(C(=O)O)cn2C1CC1 (stereo not shown)	µg/mL	1.6

I: CNCc1ccc(C2CCN(c3cc4c(cc3F)c(=O)c(C(=O)O)cn4C3CC3)C2)cc1 (stereo not shown)
II: O=C(O)c1cn(C2CC2)c2cc(N3CCC(c4ccccn4)C3)c(F)cc2c1=O (stereo not shown)
I'd appreciate it if you could identify which of I and II has the greater MIC. Respond with the label that goes with your answer.
I
(I: 1.6 µg/mL, II: 0.8 µg/mL)

###

Notes on MIC obtained with Streptococcus pyog..
Property Label: MIC (µg/mL)

Compound	Experimental System	MIC / µg/mL
NCc1cccnc1C1CCN(c2c(F)c(N)c3c(=O)c(C(=O)O)cn(C4CC4)c3c2F)C1 (stereo not shown)	Streptococcus pyog.	0.025
O=C(O)c1cn(C2CC2)c2cc(N3CCC(c4cccnc4)C3)c(F)cc2c1=O (stereo not shown)	Streptococcus pyog.	0.025
Nc1c(F)c(N2CCC(c3cccnc3)C2)c(F)c2c1c(=O)c(C(=O)O)cn2C1CC1 (stereo not shown)	Streptococcus pyog.	0.025
Nc1c(F)c(N2CCC(c3ccncc3)C2)c(F)c2c1c(=O)c(C(=O)O)cn2C1CC1 (stereo not shown)	Streptococcus pyog.	0.05

P: NCc1ccc(C2CCN(c3c(F)c(N)c4c(=O)c(C(=O)O)cn(C5CC5)c4c3F)C2)cc1 (stereo not shown)
Q: NCc1ccccc1C1CCN(c2nc3c(cc2F)c(=O)c(C(=O)O)cn3C2CC2)C1 (stereo not shown)
Select the item whose MIC value is smaller, choosing between P and Q . Use the label to indicate which entry you chose.
P
(P: 0.013 µg/mL, Q: 0.025 µg/mL)

###

Tested on: Streptococcus faec.
Property Label: MIC (mg/L)

a: NCc1cccc(C2CCN(c3nc4c(cc3F)c(=O)c(C(=O)O)cn4C3CC3)C2)c1 (stereo not shown)
b: NCc1ccccc1C1CCN(c2nc3c(cc2F)c(=O)c(C(=O)O)cn3C2CC2)C1 (stereo not shown)
Of a and b , which one carries the higher reported MIC? Mark your selection by writing its label.
b

I: NCc1cccnc1C1CCN(c2c(F)c(N)c3c(=O)c(C(=O)O)cn(C4CC4)c3c2F)C1 (stereo not shown)
II: NCc1cccc(C2CCN(c3cc4c(cc3F)c(=O)c(C(=O)O)cn4C3CC3)C2)c1 (stereo not shown)
Of I versus II , which is the one with smaller reported MIC? Pick one; state its label.
II
(II: 0.013 mg/L, I: 0.025 mg/L)

###

Test system: Streptococcus faec.
Protocol: In vitro antibacterial activity, microtitration dilution method (MIC)
Assay type: cell-based
Experimental Parameters: read-out: Minimal Inhibitory Concentration MIC
Property Label: MIC (µg/mL)

Solved cases (3 shown):
Molecule	MIC (µg/mL)
CNCc1ccc(C2CCN(c3cc4c(cc3F)c(=O)c(C(=O)O)cn4C3CC3)C2)cc1 (stereo not drawn) [Example 14]	0.025
Nc1c(F)c(N2CCC(c3cccnc3)C2)c(F)c2c1c(=O)c(C(=O)O)cn2C1CC1 (stereo not drawn) [Example 22]	0.05
Nc1c(F)c(N2CCC(c3ccncc3)C2)c(F)c2c1c(=O)c(C(=O)O)cn2C1CC1 (stereo not drawn) [Example 25]	0.05

a: CNCc1cccc(C2CCN(c3c(F)c(N)c4c(=O)c(C(=O)O)cn(C5CC5)c4c3F)C2)c1 (stereo not drawn) [Example 13]
b: CNCc1ccc(C2CCN(c3c(F)c(N)c4c(=O)c(C(=O)O)cn(C5CC5)c4c3F)C2)cc1 (stereo not drawn) [Example 15]
Quick one: lower MIC, a or b ? Field: selected label. Fill in the label of the entry you choose.
b
(b: 0.025 µg/mL, a: 0.05 µg/mL)

###

Tested on: Pseu. aeru.
Protocol: In vitro antibacterial activity, microtitration dilution method (MIC)
Format: cell-based
Experimental Parameters: read-out: Minimal Inhibitory Concentration MIC
Property Label: MIC (µg/mL)

The cases that follow already have their MIC on record.
Molecule	MIC / µg/mL
NCc1ccccc1C1CCN(c2nc3c(cc2F)c(=O)c(C(=O)O)cn3C2CC2)C1 (centres unmarked) [Example 1]	1.6
CNCc1ccc(C2CCN(c3c(F)c(N)c4c(=O)c(C(=O)O)cn(C5CC5)c4c3F)C2)cc1 (centres unmarked) [Example 15]	1.6
NCc1cccc(C2CCN(c3c(F)c(N)c4c(=O)c(C(=O)O)cn(C5CC5)c4c3F)C2)c1 (centres unmarked) [Example 8]	0.8

a: NCc1cccc(C2CCN(c3cc4c(cc3F)c(=O)c(C(=O)O)cn4C3CC3)C2)c1 (centres unmarked) [Example 7]
b: CNCc1cccc(C2CCN(c3c(F)c(N)c4c(=O)c(C(=O)O)cn(C5CC5)c4c3F)C2)c1 (centres unmarked) [Example 13]
API: POST /compare with a and b ; response names the item with higher MIC. Return value: the label identifying the chosen record.
b
(b: 1.6 µg/mL, a: 0.8 µg/mL)

###

Endpoint: MIC. System: S. aureus S. Items follow.
Property Label: MIC (ng/mL)

Compound	Quantitative Readout
NCc1cccc(C2CCN(c3nc4c(cc3F)c(=O)c(C(=O)O)cn4C3CC3)C2)c1 (stereo not shown)	6
CNCc1cccc(C2CCN(c3c(F)c(N)c4c(=O)c(C(=O)O)cn(C5CC5)c4c3F)C2)c1 (stereo not shown)	13
NCc1ccccc1C1CCN(c2nc3c(cc2F)c(=O)c(C(=O)O)cn3C2CC2)C1 (stereo not shown)	13
NCc1cccc(C2CCN(c3cc4c(cc3F)c(=O)c(C(=O)O)cn4C3CC3)C2)c1 (stereo not shown)	6
CNCc1ccc(C2CCN(c3c(F)c(N)c4c(=O)c(C(=O)O)cn(C5CC5)c4c3F)C2)cc1 (stereo not shown)	6

I: CNCc1ccc(C2CCN(c3cc4c(cc3F)c(=O)c(C(=O)O)cn4C3CC3)C2)cc1 (stereo not shown)
II: NCc1cccnc1C1CCN(c2c(F)c(N)c3c(=O)c(C(=O)O)cn(C4CC4)c3c2F)C1 (stereo not shown)
Which value of MIC is numerically greater: that of I or that of II ? State your choice using its label.
II
(II: 13 ng/mL, I: 6 ng/mL)

###

System: Kleb. pneu.
Protocol: In vitro antibacterial activity, microtitration dilution method (MIC)
Assay type: cell-based
Experimental Parameters: read-out: Minimal Inhibitory Concentration MIC
Property Label: MIC (µg/mL)

Record excerpt, results attached:
Compound	MIC [µg/mL]
Nc1c(F)c(N2CCC(c3ccncc3)C2)c(F)c2c1c(=O)c(C(=O)O)cn2C1CC1 (stereo not shown) [Example 25]	0.4
NCc1cccc(C2CCN(c3c(F)c(N)c4c(=O)c(C(=O)O)cn(C5CC5)c4c3F)C2)c1 (stereo not shown) [Example 8]	0.1

a: NCc1cccnc1C1CCN(c2c(F)c(N)c3c(=O)c(C(=O)O)cn(C4CC4)c3c2F)C1 (stereo not shown) [Example 29]
b: CNCc1ccc(C2CCN(c3cc4c(cc3F)c(=O)c(C(=O)O)cn4C3CC3)C2)cc1 (stereo not shown) [Example 14]
Kindly identify the item with the lower MIC figure among these two: a and b Choose, then provide that item's label.
a
(a: 0.1 µg/mL, b: 0.4 µg/mL)

###

System: Kleb. pneu.
Property Label: MIC (µg/mL)

# example entries with known answers
Molecule	Unit Text	Quantitative Readout
NCc1ccc(C2CCN(c3c(F)c(N)c4c(=O)c(C(=O)O)cn(C5CC5)c4c3F)C2)cc1 (stereo not drawn) [Example 11]	µg/mL	0.2
O=C(O)c1cn(C2CC2)c2cc(N3CCC(c4ccccn4)C3)c(F)cc2c1=O (stereo not drawn) [Example 17]	µg/mL	0.2
CNCc1ccc(C2CCN(c3c(F)c(N)c4c(=O)c(C(=O)O)cn(C5CC5)c4c3F)C2)cc1 (stereo not drawn) [Example 15]	µg/mL	0.4
O=C(O)c1cn(C2CC2)c2cc(N3CCC(c4cccnc4)C3)c(F)cc2c1=O (stereo not drawn) [Example 21]	µg/mL	0.2
NCc1ccccc1C1CCN(c2nc3c(cc2F)c(=O)c(C(=O)O)cn3C2CC2)C1 (stereo not drawn) [Example 1]	µg/mL	0.2
CNCc1cccc(C2CCN(c3c(F)c(N)c4c(=O)c(C(=O)O)cn(C5CC5)c4c3F)C2)c1 (stereo not drawn) [Example 13]	µg/mL	0.4
Nc1c(F)c(N2CCC(c3cccnc3)C2)c(F)c2c1c(=O)c(C(=O)O)cn2C1CC1 (stereo not drawn) [Example 22]	µg/mL	0.2

a: NCc1cccc(C2CCN(c3cc4c(cc3F)c(=O)c(C(=O)O)cn4C3CC3)C2)c1 (stereo not drawn) [Example 7]
b: NCc1cccc(C2CCN(c3nc4c(cc3F)c(=O)c(C(=O)O)cn4C3CC3)C2)c1 (stereo not drawn) [Example 6]
Please choose the item with the lower MIC value from this pair: a and b Which one? Tell me its label.
b
(b: 0.05 µg/mL, a: 0.1 µg/mL)
